# Subject Of Test: mouse P23H opsin mutant (Mus musculus, UniProt P15409, P23H)
# Protocol Summary: β-Gal fragment complementation assay: rescue of P23H opsin transport from ER to plasma membrane, U2OS(PLC-EA/P23H-PK) cells
# Format: cell-based
# Test Parameters: U2OS; Table 1; experimental maximum; read-out: β-Gal fragment complementation assay Activity score (%) Max (Exp)
# Protocol: U2OS(PLC-EA/P23H-PK) cells. A U2OS stable cell line was generated by DiscoveRx, Inc. (Fremont, CA, USA) for the β-Gal fragment complementation assay used in the small molecule HTS for rescue of P23H opsin transport. […] Briefly, U2OS(PLC-EA/P23H-PK) cells were suspended in assay medium at 3×10^5 cells mL^−1. […] Assay plates were incubated in the dark for 60-90 min, and luminescence was read from each assay plate with an Envision microplate reader (PerkinElmer) during a 0.1 s per well integration time. […]
Measure: Emax

1. O=C(NCCCn1cccc1)c1cc(-c2ccccc2)on1 [Compound F5937-0207] = 32.8%
2. COCCNC(=O)c1sc2c(cnc3ccc(OC)cc32)c1-c1ccccc1 [Compound F3382-5924] = 931%
3. O=C(NCCn1ncc2c(NCc3ccco3)ncnc21)c1cc(-c2ccccc2)on1 [Compound F2902-1134] = 23.1%
4. O=C(CCCCCN1C(=O)c2cccc3cccc(c23)C1=O)NO [Scriptaid, reference compound] = 98%

---

# Subject Of Test: P23H opsin (Mus musculus, UniProt P15409, P23H)
# Construct: expressed in transfected cells
# Protocol Summary: Immunoblot of P23H opsin glycosylation in NIH3T3 cells; further: test concentration or dose not given here
# Assay type: cell-based
# Parameters: key: n = no; y = yes
# Test Parameters: P23H opsin
Measure: Improved glycosylation

1. O=C(NCCn1ncc2c(NCc3ccco3)ncnc21)c1cc(-c2ccccc2)on1 = n
2. Cc1cc(OCC(=O)Nc2cc(N3CCOCC3)ncn2)cc(C)c1Cl = n
3. CC1=C(/C=C/C(C)=C\C=C\C(C)=C\C=O)C(C)(C)CCC1 [9-cis-retinal, reference compound] = y
4. O=C(CCCCCN1C(=O)c2cccc3cccc(c23)C1=O)NO [Scriptaid, reference compound] = n
5. COCCNC(=O)c1sc2c(cnc3ccc(OC)cc32)c1-c1ccccc1 = y
6. O=C1OCC(c2ccc(Cl)s2)=C1c1cccs1 = y
7. O=C(C1CC1)N(CCn1cccn1)c1nc2c(Cl)cccc2s1 = y
8. O=C(NCCCn1cccc1)c1cc(-c2ccccc2)on1 = n
9. O=C(Cn1c2c(c(=O)n(C3CCCCC3)c1=O)CCC2)Nc1cccc(F)c1 = y
10. O=C(NCC#CCN1CCCC1)c1cc(-c2ccccc2)on1 = n
11. O=C(NCCCOc1cccc2cccnc12)c1cc(-c2ccccc2)on1 = n

---

# Subject Of Test: mouse P23H opsin mutant (Mus musculus, UniProt P15409, P23H)
# Protocol Summary: β-Gal fragment complementation assay: rescue of P23H opsin transport from ER to plasma membrane, U2OS(PLC-EA/P23H-PK) cells
# Type: cell-based
# Test Parameters: Table 2, modifications at C3 of the furan-2(5H)-one ring; read-out: Potency EC50
# Protocol: U2OS(PLC-EA/P23H-PK) cells. A U2OS stable cell line was generated by DiscoveRx, Inc. (Fremont, CA, USA) for the β-Gal fragment complementation assay used in the small molecule HTS for rescue of P23H opsin transport. […] Briefly, U2OS(PLC-EA/P23H-PK) cells were suspended in assay medium at 3×10^5 cells mL^−1. […] Assay plates were incubated in the dark for 60-90 min, and luminescence was read from each assay plate with an Envision microplate reader (PerkinElmer) during a 0.1 s per well integration time. […]
Parameter: EC50. Scope: all listed entries.
Measure: EC50

1. COc1ccccc1C1=C(c2ccc(Cl)s2)COC1=O [YC-033] = 8.5 µM
2. O=C1OCC(c2ccc(Cl)s2)=C1c1ccccc1[N+](=O)[O-] [YC-013] = 11 µM
3. O=C1OCC(c2ccc(Cl)s2)=C1c1cccc(Cl)c1 [YC-034] = 4.75 µM
4. O=C1OCC(c2ccc(Cl)s2)=C1c1ccccc1Cl [YC-032] = 5.8 µM
5. O=C1OCC(c2ccc(Cl)s2)=C1c1ccccn1 [YC-043] = 19 µM

---

# Subject Of Test: mouse P23H opsin mutant (Mus musculus, UniProt P15409, P23H)
# Protocol Summary: β-Gal fragment complementation assay: rescue of P23H opsin transport from ER to plasma membrane, U2OS(PLC-EA/P23H-PK) cells
# Type: cell-based
# Test Parameters: U2OS; read-out: Efficacy (%)
Measure: Emax (%)

1) O=C1OCC(c2ccc(Cl)s2)=C1c1cccs1 [YC-001] = 248
2) COc1ccccc1C1=C(c2ccc(Cl)s2)COC1=O [YC-033] = 38.3
3) O=C1OCC(c2ccc(F)s2)=C1c1cccs1 [YC-021] = 160
4) O=C1OCC(c2ccc(Br)s2)=C1c1ccc(F)cc1 [YC-009] = 10
5) O=C1OCC(c2ccc(Cl)s2)=C1c1ccccn1 [YC-043] = 214
6) Cc1sc(C)c(C2C(=O)OC(=O)C2c2c(C)sc(C)c2C)c1C (centres unmarked) [YC-018] = 95
7) O=C1OCC(c2ccc(Br)s2)=C1c1ccc(Cl)cc1 [YC-011] = 10
8) O=C1OCC(c2ccc(Cl)s2)=C1c1ccccc1[N+](=O)[O-] [YC-013] = 111
9) O=C1OCC(c2ccc(Cl)s2)=C1c1ccccc1Cl [YC-032] = 288
10) O=C1OCC(c2ccc(Cl)s2)=C1c1cccc(Cl)c1 [YC-034] = 43.5
11) O=C1OCC(c2ccc(F)cc2)=C1c1cccs1 [YC-044] = 10
12) O=C1OCC(c2ccc(Cl)cc2)=C1c1cccs1 [YC-003] = 5
13) O=C1OCC(c2cccs2)=C1c1cccs1 [YC-002] = 6
14) O=C1OCC(c2ccc(Br)s2)=C1c1ccc(Cl)c(Cl)c1 [YC-008] = 11

---

# Subject Of Test: mouse P23H opsin mutant (Mus musculus, UniProt P15409, P23H)
# Protocol Summary: β-Gal fragment complementation assay: rescue of P23H opsin transport from ER to plasma membrane, U2OS(PLC-EA/P23H-PK) cells
# Type: cell-based
# Test Parameters: read-out: β-Gal fragment complementation assay Activity score (%) EC50
# Experimental: U2OS(PLC-EA/P23H-PK) cells. A U2OS stable cell line was generated by DiscoveRx, Inc. (Fremont, CA, USA) for the β-Gal fragment complementation assay used in the small molecule HTS for rescue of P23H opsin transport. […] Briefly, U2OS(PLC-EA/P23H-PK) cells were suspended in assay medium at 3×10^5 cells mL^−1. […] Assay plates were incubated in the dark for 60-90 min, and luminescence was read from each assay plate with an Envision microplate reader (PerkinElmer) during a 0.1 s per well integration time. […]
Measure: EC50

1) O=C(C1CC1)N(CCn1cccn1)c1nc2c(Cl)cccc2s1 = 5.93 µM
2) O=C(NCCn1ncc2c(NCc3ccco3)ncnc21)c1cc(-c2ccccc2)on1 = 21.6 µM
3) COCCNC(=O)c1sc2c(cnc3ccc(OC)cc32)c1-c1ccccc1 = 28.6 µM
4) O=C(NCCCn1cccc1)c1cc(-c2ccccc2)on1 = 8.38 µM
5) Cc1cc(OCC(=O)Nc2cc(N3CCOCC3)ncn2)cc(C)c1Cl = 10.7 µM
6) O=C(NCC#CCN1CCCC1)c1cc(-c2ccccc2)on1 = 8.61 µM
7) O=C(NCCCOc1cccc2cccnc12)c1cc(-c2ccccc2)on1 = 25 µM
8) O=C(Cn1c2c(c(=O)n(C3CCCCC3)c1=O)CCC2)Nc1cccc(F)c1 = 54.3 µM
